Origin of measurements: paper PMC10854894

System: REM134 cells
runDescription: MTT cell proliferation/cytotoxicity assay
Format: cell-based, canine
runParameters: Canis lupus familiaris, REM134, 24 h, read-out: Half-Maximal Inhibitory Concentration (IC50)
Description: The cytotoxic effects of the three BZOP derivatives were studied via the 3-(4,5-Dimethyl-2-thiazolyl)-2,5-diphenyl-2H-tetrazolium bromide (MTT) assay. The REM134, CMGT071020, and MDCK cell lines were seeded at a density of 5 × 10^3 cells/well in 96-well plates and allowed to grow for 24 h. […] The absorbance of the formazan solution was measured using a Synergy H1 hybrid multi-mode microplate reader (BioTek, Winooski, VT, USA) at 570 nm. […]
pIC50: −log10 of the molar value.
Recorded pIC50 values for a group of compounds are listed next.
assayEndpoint: pIC50

[O-][n+]1cccc2c1C=Cc1ccncc1O2 [OPDOc, oxepino(3,2-b:7,6-c’)dipyridine 1-oxide]    < 3.52
[O-][n+]1cccc2c1C=Cc1cccnc1O2 [OPDOb, oxepino(2,3-b:6,7-b’)dipyridine 1-oxide]    < 3.52
Cc1ncccc1Oc1ccccc1C=O [MPOBA]    3.58
